# study.target: GSPT1 (Homo sapiens, UniProt P15170+Q96SW2)
# Sequence (P15170 whole entry, one chain of several): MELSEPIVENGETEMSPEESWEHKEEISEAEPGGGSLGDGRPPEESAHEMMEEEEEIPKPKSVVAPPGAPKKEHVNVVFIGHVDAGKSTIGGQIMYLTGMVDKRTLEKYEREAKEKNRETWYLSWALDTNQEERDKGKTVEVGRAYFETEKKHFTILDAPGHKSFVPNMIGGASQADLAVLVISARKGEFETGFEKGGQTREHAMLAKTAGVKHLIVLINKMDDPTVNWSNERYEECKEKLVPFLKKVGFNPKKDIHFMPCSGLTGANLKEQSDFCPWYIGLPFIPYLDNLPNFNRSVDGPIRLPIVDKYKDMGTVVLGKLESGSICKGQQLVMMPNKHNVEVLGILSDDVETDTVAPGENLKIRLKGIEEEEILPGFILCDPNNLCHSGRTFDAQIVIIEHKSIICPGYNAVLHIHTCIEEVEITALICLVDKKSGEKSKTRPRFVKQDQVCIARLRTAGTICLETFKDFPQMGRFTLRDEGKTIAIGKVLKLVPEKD
# experiment.description: HiBiT degradation assay, 293T.114 cells, GSPT1
# Format: cell-based
# condition.context: read-out: HiBiT-Degradation 293T.114 GSPT1 6 hours Emax; 293T.114 cells, 6 hours
result.type: Emax

Known Emax results, listed for orientation:
Cc1ccc(CN2CCC(c3ccc4c5c(cccc35)N(C3CCC(=O)NC3=O)C4=O)CC2)cc1F (stereo not drawn): 60 to 95%
COc1ncc(CN2CCC(c3ccc4c5c(cccc35)N(C3CCC(=O)NC3=O)C4=O)CC2)cn1 (stereo not drawn): 60 to 95%
CC(NC(=O)c1ccc2c3c(ccnc13)N(C1CCC(=O)NC1=O)C2=O)c1ccccc1 (stereo not drawn): 60 to 95%
CN1CC(c2ccc3c4c(cccc24)N(C2CCC(=O)NC2=O)C3=O)C1 (stereo not drawn): 60 to 95%
N#Cc1ccc(N2CCN(Cc3ccc(Cc4ccc5c6c(cccc46)C(=O)N5[C@H]4CCC(=O)NC4=O)cc3)CC2)c(F)c1: 60 to 95%

Asked: State Emax (GSPT1 (Homo sapiens, UniProt P15170+Q96SW2)) of CCOC(=O)c1cc(Cc2ccc3c4c(cccc24)N(C2CCC(=O)NC2=O)C3=O)ccc1F (stereo not drawn) .
Given back: 60 to 95%

Asked: State Emax (GSPT1 (Homo sapiens, UniProt P15170+Q96SW2)) of CCOC(=O)c1ccc(Cc2ccc3c4c(cccc24)N(C2CCC(=O)NC2=O)C3=O)cc1 (stereo not drawn) .
Given back: 45 to 60%

Asked: State Emax (GSPT1 (Homo sapiens, UniProt P15170+Q96SW2)) of O=C1CCC(N2C(=O)c3ccc(N4CCc5ccccc54)c4cccc2c34)C(=O)N1 (stereo not drawn) .
Given back: 60 to 95%

###

Reported DC50 by item:
# study.target: GSPT1 (Homo sapiens, UniProt P15170+Q96SW2)
# experiment.description: HiBiT degradation assay, 293T.114 cells, GSPT1
# Type: cell-based
# condition.context: 293T.114 cells, 48 hours; read-out: HiBiT-Degradation 293T.114 GSPT1 48 hours DC50
# Description: GSPT1 degradation was determined based on quantification of luminescent signal using Nano-Glo® HiBiT Lytic Assay kit. Test compounds were added to the 384-well plate from a top concentration of 10 μM with 5 points, 3-fold titration in quadruplicates. 293T.114 cells were added into 384-well plates at a cell density of 6000 cells per well. […] Luminescence was acquired on EnVision™ Multilabel Reader (PerkinElmer, Santa Clara, CA, USA).

Known DC50 results, listed for orientation:
CC(C)OC1CCN(Cc2cc3c4c(cccc4c2)N(C2CCC(=O)NC2=O)C3=O)CC1 (stereo not shown) [Compound 161]: > 10 µM
N#Cc1ccc(Cc2ccc3c4c(cccc24)N(C2CCC(=O)NC2=O)C3=O)cc1 (stereo not shown) [Compound 66]: > 10 µM
O=C1CCC(N2C(=O)c3ccc(CNCCc4ccc(Cl)cc4)c4cccc2c34)C(=O)N1 (stereo not shown) [Compound 157]: > 10 µM

Asked: State DC50 (GSPT1 (Homo sapiens, UniProt P15170+Q96SW2)) of O=C1CCC(N2C(=O)c3ccc(CNCc4cc(F)ccc4F)c4cccc2c34)C(=O)N1 (stereo not shown) [Compound 155] .
Given back: > 10 µM

###

# study.target: GSPT1 (Homo sapiens, UniProt P15170+Q96SW2)
# experiment.description: HiBiT degradation assay, 293T.114 cells, GSPT1
# Assay type: cell-based
# condition.context: 293T.114 cells, 24 hours; read-out: HiBiT-Degradation 293T.114 GSPT1 24 hours DC50
result.type: DC50

O=C1CCC(N2C(=O)c3ccc(CNCCc4ccc(Cl)cc4)c4cccc2c34)C(=O)N1 (centres unmarked): > 10 µM
O=C1CCC(N2C(=O)c3ccc(CNCc4cc(F)ccc4F)c4cccc2c34)C(=O)N1 (centres unmarked): > 10 µM
O=C1CCC(N2C(=O)c3ccc(CN4CC(Oc5ccccc5)C4)c4cccc2c34)C(=O)N1 (centres unmarked): < 0.1 µM
CC(C)OC1CCN(Cc2cc3c4c(cccc4c2)N(C2CCC(=O)NC2=O)C3=O)CC1 (centres unmarked): > 10 µM

Now consider the entry below.
Asked: Identify measured DC50 associated with N#Cc1ccc(Cc2ccc3c4c(cccc24)N(C2CCC(=O)NC2=O)C3=O)cc1 (centres unmarked)
Given back: > 10 µM

###

# study.target: GSPT1 (Homo sapiens, UniProt P15170+Q96SW2)
# experiment.description: HiBiT degradation assay, 293T.114 cells, GSPT1
# Assay type: cell-based
# condition.context: read-out: HiBiT-Degradation 293T.114 GSPT1 6 hours Emax; 293T.114 cells, 6 hours
# Protocol: GSPT1 degradation was determined based on quantification of luminescent signal using Nano-Glo® HiBiT Lytic Assay kit. Test compounds were added to the 384-well plate from a top concentration of 10 μM with 5 points, 3-fold titration in quadruplicates. 293T.114 cells were added into 384-well plates at a cell density of 6000 cells per well. […] Luminescence was acquired on EnVision™ Multilabel Reader (PerkinElmer, Santa Clara, CA, USA).
result.type: Emax

CC1(C(=O)N2CCC(n3cc(Cc4ccc5c6c(cccc46)C(=O)N5[C@H]4CCC(=O)NC4=O)cn3)CC2)CCC1 [Compound 206]: > 95%
CN(c1ccc2c3c(cccc13)N(C1CCC(=O)NC1=O)C2=O)C1CCN(Cc2ccccc2)C1 (stereo not shown) [Compound 220]: 60 to 95%

Asked: Identify measured Emax associated with O=C1CCC(N2C(=O)c3cc(CNCc4ccco4)cc4cccc2c34)C(=O)N1 (stereo not shown) [Compound 160]
Given back: 45 to 60%

Asked: Identify measured Emax associated with CC1(n2cc(Cc3ccc4c5c(cccc35)C(=O)N4C3CCC(=O)NC3=O)cn2)CCN(C(=O)C2(C#N)CCCCC2)CC1 (stereo not shown) [Compound 204]
Given back: 60 to 95%

Asked: Identify measured Emax associated with CC1(n2cc(Cc3ccc4c5c(cccc35)C(=O)N4C3CCC(=O)NC3=O)cn2)CCN(C(=O)C2(C(F)(F)F)CC2)CC1 (stereo not shown) [Compound 203]
Given back: 60 to 95%

Asked: Identify measured Emax associated with O=C1CCC(N2C(=O)c3cccc4c(Cc5cnn(C6CCN(C(=O)C7(C(F)(F)F)CCC7)CC6)c5)ccc2c34)C(=O)N1 (stereo not shown) [Compound 201]
Given back: > 95%

Asked: Identify measured Emax associated with O=C1CCC(N2C(=O)c3ccc(Br)c4cccc2c34)C(=O)N1 (stereo not shown) [Compound 224]
Given back: 60 to 95%

###

# study.target: IKZF1 (Homo sapiens, UniProt Q13422+Q96SW2)
# Construct: endogenously expressing IKZF1 with HiBiT fusion tag via CRISPR; endogenous in cells; host or cells: NCIH929.11 (CRISPR knock-in)
# Sequence (Q13422 whole entry, the tested form may be a part): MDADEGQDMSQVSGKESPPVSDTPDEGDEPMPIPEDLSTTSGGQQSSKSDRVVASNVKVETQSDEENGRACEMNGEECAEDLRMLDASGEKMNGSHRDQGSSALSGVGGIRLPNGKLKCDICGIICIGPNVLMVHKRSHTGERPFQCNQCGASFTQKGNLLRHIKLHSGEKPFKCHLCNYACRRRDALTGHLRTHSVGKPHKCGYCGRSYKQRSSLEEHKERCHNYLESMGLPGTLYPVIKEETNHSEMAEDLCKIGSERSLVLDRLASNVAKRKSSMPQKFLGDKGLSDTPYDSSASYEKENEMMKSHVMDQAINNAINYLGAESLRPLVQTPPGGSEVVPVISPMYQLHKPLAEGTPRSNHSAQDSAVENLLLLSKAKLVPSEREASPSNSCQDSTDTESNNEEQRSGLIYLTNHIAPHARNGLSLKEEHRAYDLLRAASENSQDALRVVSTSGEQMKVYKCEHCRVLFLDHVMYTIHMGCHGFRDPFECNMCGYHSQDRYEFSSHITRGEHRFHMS
# Sequence (Q96SW2 whole entry, the tested form may be a part): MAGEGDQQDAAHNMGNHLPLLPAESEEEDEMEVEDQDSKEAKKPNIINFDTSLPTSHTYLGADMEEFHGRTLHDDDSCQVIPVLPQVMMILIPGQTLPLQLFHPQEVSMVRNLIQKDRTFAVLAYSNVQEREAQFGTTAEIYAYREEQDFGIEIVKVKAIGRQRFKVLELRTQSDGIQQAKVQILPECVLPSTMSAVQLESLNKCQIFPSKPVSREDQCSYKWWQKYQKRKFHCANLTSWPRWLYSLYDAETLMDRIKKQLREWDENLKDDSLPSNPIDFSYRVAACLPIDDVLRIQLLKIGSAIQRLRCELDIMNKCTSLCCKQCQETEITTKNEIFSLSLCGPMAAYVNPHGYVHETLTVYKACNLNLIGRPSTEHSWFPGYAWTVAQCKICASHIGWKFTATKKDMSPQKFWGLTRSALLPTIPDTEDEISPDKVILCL
# Sequence (Q16531 2-1140 partner limits assumed): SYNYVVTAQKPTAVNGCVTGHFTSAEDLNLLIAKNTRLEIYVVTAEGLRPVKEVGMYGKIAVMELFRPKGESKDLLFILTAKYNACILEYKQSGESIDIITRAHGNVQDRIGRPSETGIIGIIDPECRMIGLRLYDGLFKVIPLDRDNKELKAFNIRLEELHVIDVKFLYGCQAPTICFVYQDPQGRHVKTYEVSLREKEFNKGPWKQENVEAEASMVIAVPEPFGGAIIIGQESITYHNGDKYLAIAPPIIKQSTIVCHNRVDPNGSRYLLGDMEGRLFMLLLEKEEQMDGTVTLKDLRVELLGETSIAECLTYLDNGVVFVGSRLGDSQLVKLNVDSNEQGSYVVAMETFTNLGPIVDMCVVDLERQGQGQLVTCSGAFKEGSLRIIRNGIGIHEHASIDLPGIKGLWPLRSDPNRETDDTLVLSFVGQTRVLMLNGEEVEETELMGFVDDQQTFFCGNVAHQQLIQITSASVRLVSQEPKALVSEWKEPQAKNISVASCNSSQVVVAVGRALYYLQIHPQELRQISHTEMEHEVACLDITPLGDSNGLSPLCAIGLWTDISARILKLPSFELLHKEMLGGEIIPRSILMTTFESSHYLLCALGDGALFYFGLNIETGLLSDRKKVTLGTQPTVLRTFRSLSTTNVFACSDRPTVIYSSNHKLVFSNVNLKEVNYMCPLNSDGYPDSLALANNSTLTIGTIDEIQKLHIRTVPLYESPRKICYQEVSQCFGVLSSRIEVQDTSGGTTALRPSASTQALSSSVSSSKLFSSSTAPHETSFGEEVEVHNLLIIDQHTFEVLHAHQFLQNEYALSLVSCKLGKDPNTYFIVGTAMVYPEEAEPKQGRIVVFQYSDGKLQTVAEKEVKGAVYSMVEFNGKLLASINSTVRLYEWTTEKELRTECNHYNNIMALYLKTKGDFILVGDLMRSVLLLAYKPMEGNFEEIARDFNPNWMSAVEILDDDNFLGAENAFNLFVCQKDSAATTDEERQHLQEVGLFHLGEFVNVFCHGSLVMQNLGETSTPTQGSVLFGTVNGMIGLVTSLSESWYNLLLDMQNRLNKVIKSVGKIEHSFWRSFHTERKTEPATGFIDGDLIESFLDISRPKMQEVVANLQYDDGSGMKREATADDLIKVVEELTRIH
# experiment.description: HiBiT degradation assay, NCIH929.11 (HiBiT-IKZF1) cells
# Type: cell-based
# condition.context: NCHI929.11 cells, 6 hours
# Description: RPMI no-phenol red medium and fetal bovine serum (FBS) were purchased from Gibco (Grand Island, NY, USA). Nano-Glo® HiBiT Lytic Assay System was purchased from Promega (Madison, WI, USA). […] IKZF 1 degradation was determined based on quantification of luminescent signal using Nano-Glo® HiBiT Lytic Assay kit. […] Luminescence was acquired on EnVision™ Multilabel Reader (PerkinElmer, Santa Clara, CA, USA).
result.type: DC50

Known DC50 results, listed for orientation:
N#Cc1ccc(Cc2ccc3c4c(cccc24)N(C2CCC(=O)NC2=O)C3=O)cc1 (centres unmarked): > 10 µM
CCOc1ccc(Cc2ccc3c4c(cccc24)N(C2CCC(=O)NC2=O)C3=O)cc1 (centres unmarked): > 10 µM
O=C1CCC(N2C(=O)c3ccc(Br)c4cccc2c34)C(=O)N1 (centres unmarked): > 10 µM
CCOC(=O)c1ccc(Cc2ccc3c4c(cccc24)N(C2CCC(=O)NC2=O)C3=O)cc1 (centres unmarked): 0.1 to 1 µM
CCOC(=O)c1cc(Cc2ccc3c4c(cccc24)N(C2CCC(=O)NC2=O)C3=O)ccc1F (centres unmarked): > 10 µM
CC1(C(=O)N2CCC(n3cc(Cc4ccc5c6c(cccc46)C(=O)N5[C@H]4CCC(=O)NC4=O)cn3)CC2)CCC1: < 0.1 µM
CCOc1ccc(Cc2ccc3c4c(cccc24)N(C2CCC(=O)NC2=O)C3=O)c(F)c1 (centres unmarked): > 10 µM
CC(C)(C)OC(=O)N1CCC(n2cc(Cc3ccc4c5c(cccc35)C(=O)N4[C@H]3CCC(=O)NC3=O)cn2)CC1: < 0.1 µM
O=C1CCC(N2C(=O)c3ccc(CN4CC(Oc5ccccc5)C4)c4cccc2c34)C(=O)N1 (centres unmarked): < 0.1 µM
COC(=O)c1ccc(Nc2ccc3cccc4c3c2C(=O)N4C2CCC(=O)NC2=O)cc1 (centres unmarked): > 10 µM

Asked: Identify measured DC50 associated with O=C1CCC(N2C(=O)c3ccc(N4CCc5ccccc54)c4cccc2c34)C(=O)N1 (centres unmarked)
Given back: > 10 µM

Asked: Identify measured DC50 associated with N#Cc1ccc(N2CCN(Cc3ccc(Cc4ccc5c6c(cccc46)C(=O)N5[C@H]4CCC(=O)NC4=O)cc3)CC2)c(F)c1
Given back: < 0.1 µM

Asked: Identify measured DC50 associated with CCOC(=O)c1cccc(Cc2ccc3c4c(cccc24)N(C2CCC(=O)NC2=O)C3=O)c1 (centres unmarked)
Given back: > 10 µM

Asked: Identify measured DC50 associated with CC(C)OC1CCN(Cc2cc3c4c(cccc4c2)N(C2CCC(=O)NC2=O)C3=O)CC1 (centres unmarked)
Given back: 1 to 10 µM

Asked: Identify measured DC50 associated with O=C1CCC(N2C(=O)c3ccc(CNCCc4ccc(Cl)cc4)c4cccc2c34)C(=O)N1 (centres unmarked)
Given back: 0.1 to 1 µM

Asked: Identify measured DC50 associated with O=C1CCC(N2C(=O)c3ccc(CNC(=O)C(F)(F)c4ccc(Cl)cc4)c4cccc2c34)C(=O)N1 (centres unmarked)
Given back: > 10 µM

Asked: Identify measured DC50 associated with O=C1CCC(N2C(=O)c3ccc(CNCc4cc(F)ccc4F)c4cccc2c34)C(=O)N1 (centres unmarked)
Given back: > 10 µM
